Where do these numbers come from? They come from patent US20240350835A1.

target: prostate specific membrane antigen (PSMA) (UniProt Q04609 1-750, limits assumed); test: cell-based or functional assay
Sequence (Q04609 whole entry): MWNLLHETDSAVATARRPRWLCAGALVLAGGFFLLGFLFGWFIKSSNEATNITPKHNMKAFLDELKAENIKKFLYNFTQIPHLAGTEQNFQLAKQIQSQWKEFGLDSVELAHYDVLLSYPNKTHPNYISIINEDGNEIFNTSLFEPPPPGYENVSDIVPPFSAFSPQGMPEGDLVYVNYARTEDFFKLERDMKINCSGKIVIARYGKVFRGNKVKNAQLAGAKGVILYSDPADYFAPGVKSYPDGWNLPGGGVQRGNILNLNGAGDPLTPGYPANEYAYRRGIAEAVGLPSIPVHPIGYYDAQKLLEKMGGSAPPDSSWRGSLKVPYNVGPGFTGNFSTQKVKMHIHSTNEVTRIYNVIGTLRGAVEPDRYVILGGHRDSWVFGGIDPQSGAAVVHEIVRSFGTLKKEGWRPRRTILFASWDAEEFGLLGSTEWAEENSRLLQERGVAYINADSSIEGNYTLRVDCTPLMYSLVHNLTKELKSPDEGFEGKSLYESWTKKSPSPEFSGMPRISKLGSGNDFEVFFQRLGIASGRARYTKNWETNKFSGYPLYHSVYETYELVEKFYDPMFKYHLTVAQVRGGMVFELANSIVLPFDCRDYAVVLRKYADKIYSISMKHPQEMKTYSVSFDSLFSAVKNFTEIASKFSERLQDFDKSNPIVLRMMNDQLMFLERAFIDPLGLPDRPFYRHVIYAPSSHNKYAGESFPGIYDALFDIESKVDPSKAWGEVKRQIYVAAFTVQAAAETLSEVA
readout: IC50 (nM), in vitro cell killing in C4-2 cell line (Cell Titer Glo, 96 h)
Unit nM implied. Number only.

The cases that follow already have their IC50 (nM), in vitro cell killing in C4-2 cell line (Cell Titer Glo, 96 h) on record.
binder: Humanized Anti-PSMA Antibody Variant 2 ADC, MMAF payload, Non-Cleavable (PEG3) linker (antibody, human IgG1, kappa, V domains shown, para-acetyl phenylalanine (pAF) at position A114 (Kabat numbering; first residue of the heavy chain constant region), conjugated to non-cleavable (PEG3) MMAF drug-linker) VH: QVQLVQSGAEVKKPGASVKVSCKASGYTFTEYTIHWVRQAPGQRLEWMGNINPNNGGTTYNQKFEDRVTITRDTSASTAYMELSSLRSEDTAVYYCAAGWNFDYWGQGTTLTVSS VL: DIQLTQSPSFLSASVGDRVTITCKASQDVGTAVDWYQQKPGKAPKLLIYWASTRHTGVPSRFSGSGSGTEFTLTISSLQSEDFATYYCQQYNSYPLTFGGGTKVEIKR
result_unit: nM
observed: 0.503
//
binder: Chimeric Anti-PSMA Antibody ADC, MMAE payload, Short Cleavable (Valine-Citruline-Acetyl) linker (antibody, human IgG1, kappa, V domains shown, para-acetyl phenylalanine (pAF) at position A114 (Kabat numbering; first residue of the heavy chain constant region), conjugated to short cleavable (Valine-Citruline-Acetyl) MMAE drug-linker) VH: EVQLQQSGPELVKPGTSVRISCKTSGYTFTEYTIHWVKQSHGKSLEWIGNINPNNGGTTYNQKFEDKATLTVDKSSSTAYMELRSLTSEDSAVYYCAAGWNFDYWGQGTTLTVSS VL: DIVMTQSHKFMSTSVGDRVSIICKASQDVGTAVDWYQQKPGQSPKLLIYWASTRHTGVPDRFTGSGSGTDFTLTITNVQSEDLADYFCQQYNSYPLTFGAGTKVEIKR
result_unit: nM
observed: 0.425

Now let's try a different one.
-- ask Suppose we examine the binder Chimeric Anti-PSMA Antibody ADC, MMAF payload, Cleavable (Val-Citruline-PEG1) linker (antibody, human IgG1, kappa, V domains shown, para-acetyl phenylalanine (pAF) at position A114 (Kabat numbering; first residue of the heavy chain constant region), conjugated to cleavable (Val-Citruline-PEG1) MMAF drug-linker) VH: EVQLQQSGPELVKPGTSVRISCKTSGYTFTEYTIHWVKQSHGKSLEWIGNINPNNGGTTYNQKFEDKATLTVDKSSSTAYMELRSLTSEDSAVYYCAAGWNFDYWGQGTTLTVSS VL: DIVMTQSHKFMSTSVGDRVSIICKASQDVGTAVDWYQQKPGQSPKLLIYWASTRHTGVPDRFTGSGSGTDFTLTITNVQSEDLADYFCQQYNSYPLTFGAGTKVEIKR ; what IC50 (nM), in vitro cell killing in C4-2 cell line (Cell Titer Glo, 96 h) value has been reported?
-- reply 0.047
